Tested on: P388 leukemia ip, CD2F1 mice, survival T/C
Assay: NCI In Vivo Anticancer Drug Screen. Data for tumor model P388 Leukemia (intraperitoneal) in CD2F1 (CDF1) mice
Conditions: endpoint: median survival time; dose: 50.0 mg/kg/injection; schedule: Q01DX005 (ip); vehicle: saline with Tween-80; higher = longer survival
Experimental: The antitumor activity of compounds was measured in mice bearing transplantable tumors. Survival or tumor size were measured and the results are expressed as the measurement made in the treated group (T) divided by the measurement made in the vehicle treated control group (C). The tumor model used in this assay is P388 Leukemia (intraperitoneal) in CD2F1 (CDF1) mice
Toxic doses and inconclusive results are not listed. Square brackets hold non-standard residues; d marks the D form. Peptide text beside a SMILES is read from it. * marks the point of attachment. ξ: configuration not given here. Cbz = O=C(OCc1ccccc1)*; ξP = O=C(O)C1CCCN1
Listing: T/C of selected compounds

Recorded T/C, per entry:
The compound `CC(=O)/C=C/c1ccc(OC(=O)/C=C/c2ccccc2)cc1` showed T/C equal to 101 % of control

The compound `c1ccc(N=C2N=c3ccccc3=C2c2c(Nc3ccccc3)[nH]c3ccccc23)cc1` showed T/C equal to 89 % of control

The compound `C/C(N=NC(=S)N1CC2CCC(CC2)C1)=C1\C=CC=CN1O` showed T/C equal to 105 % of control

The compound `Cc1ccc(N=NC2=C3Sc4ccccc4N=C2N(c2ccc(Br)cc2)C(=S)N3c2ccc(Cl)cc2)cc1` showed T/C equal to 102 % of control

The compound `Cc1cc(Nc2ccc(O)cc2)nc(N)n1` showed T/C equal to 105 % of control

The compound `O=C1NC(=O)C(O)(C2=C(O)CCCC2=O)C(=O)N1` showed T/C equal to 99 % of control

The compound `CC(C)(C)c1cc2c3c(c1)C(C(F)(F)F)(C(F)(F)F)OS3(=O)(O)OC2(C(F)(F)F)C(F)(F)F` showed T/C equal to 98 % of control

The compound `CCCCc1noc(N)c1SCC` showed T/C equal to 105 % of control

The compound `O=c1[nH]cnc2ccc3cn[nH]c3c12` showed T/C equal to 100 % of control

The compound `CC(=O)C1=C([Si](C)(C)C)N=NC1(C)C` showed T/C equal to 111 % of control

Continuing:
The compound CC(C)(C)OC(=O)NC(N)=NCCCC(NC(=O)OC(C)(C)C)C(=O)O (stereo not drawn) showed T/C equal to 100 % of control

The compound CC(NC(=O)C(Cc1ccc(OC(=O)OCc2ccccc2)cc1)NC(=O)OCc1ccccc1)C(=O)OCc1ccccc1 (stereo not drawn) showed T/C equal to 96 % of control

The compound CC1=C(c2ccccc2)OC(=O)C(Cl)(Cl)C1N(c1ccccc1)c1ccccc1 (stereo not drawn) showed T/C equal to 88 % of control

The compound O=C(O)CNC(=O)C1CCCN1C(=O)OCc1ccccc1 (stereo not drawn) (Cbz-[ξP]-Gly-OH) showed T/C equal to 100 % of control
